target: IMP-1 (Serratia marcescens, UniProt P52699); assay: biochemical; format: biochemical; settings: IMP-1 enzyme, CCF2-FA fluorescence assay; read-out: IMP-1 IC50
Sequence (P52699 whole entry, looked up): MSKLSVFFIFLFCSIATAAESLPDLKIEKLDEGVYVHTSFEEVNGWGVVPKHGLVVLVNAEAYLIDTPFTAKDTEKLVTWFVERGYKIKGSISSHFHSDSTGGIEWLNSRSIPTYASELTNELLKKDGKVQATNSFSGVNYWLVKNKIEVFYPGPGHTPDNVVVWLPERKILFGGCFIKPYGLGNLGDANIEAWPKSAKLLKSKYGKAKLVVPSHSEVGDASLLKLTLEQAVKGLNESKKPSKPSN
Reported pIC50 values follow for various compounds
FYI, pIC50 means -log10 of a concentration in mol per litre.

Solved cases below.
Nc1ccnc2cc(-c3cccc(S(N)(=O)=O)c3-c3nnn[nH]3)ccc12 [Example 412]	5.86
N=C(N)N1CCC(N)(c2ccc(-c3ccc(C(F)(F)F)c(S(N)(=O)=O)c3-c3nn[nH]n3)cc2)CC1 [Example 438]	8.39
NS(=O)(=O)c1c(C(F)(F)F)ccc(-c2ccc(C3CCNC3)cc2)c1-c1nn[nH]n1 (centres unmarked) [Example 443]	8.87
NS(=O)(=O)c1c(C(F)(F)F)ccc(CC[C@H]2CC[C@@H](N)CC2)c1-c1nn[nH]n1 [Example 432]	7.93
NS(=O)(=O)c1c(CCC(F)(F)F)ccc(-c2ccc(C3CCNCC3)cc2)c1-c1nn[nH]n1 [Example 473]	8.14
N=C(N)c1nc2c(-c3ccc(C(F)(F)F)c(S(N)(=O)=O)c3-c3nnn[nH]3)cccc2s1 [Example 482]	8.14

**Q:** Specify measured pIC50 for Cc1ccncc1-c1cccc(S(N)(=O)=O)c1-c1nn[nH]n1 [Example 317] .
**A:** 6.44

**Q:** Specify measured pIC50 for NS(=O)(=O)c1cccc(-c2ccc(CNCc3ccncn3)cc2)c1-c1nnn[nH]1 [Example 377] .
**A:** 7.13

**Q:** Specify measured pIC50 for NS(=O)(=O)c1c(C(F)(F)F)ccc(-c2ccc3nccn3c2)c1-c1nnn[nH]1 [Example 484] .
**A:** 8.18

**Q:** Specify measured pIC50 for Nc1cnc(-c2cccc(S(N)(=O)=O)c2-c2nnn[nH]2)cn1 [Example 402] .
**A:** 6.41

**Q:** Specify measured pIC50 for CN1CCC(NCc2ccc(-c3cccc(S(N)(=O)=O)c3-c3nnn[nH]3)cc2)C1=O (centres unmarked) [Example 349] .
**A:** 7.21

**Q:** Specify measured pIC50 for Cc1ccc(C(F)(F)F)c(S(N)(=O)=O)c1-c1nnn[nH]1 [Example 487] .
**A:** 7.25

**Q:** Specify measured pIC50 for NS(=O)(=O)c1cccc(-c2ccc3[nH]ncc3c2)c1-c1nn[nH]n1 [Example 313] .
**A:** 7.17

**Q:** Specify measured pIC50 for NS(=O)(=O)c1cccc(-c2ccc(CNCC3(O)CCC3)cc2)c1-c1nnn[nH]1 [Example 376] .
**A:** 7.01

**Q:** Specify measured pIC50 for NS(=O)(=O)c1cccc(-c2ccc3cnccc3c2)c1-c1nnn[nH]1 [Example 408] .
**A:** 7.07

**Q:** Specify measured pIC50 for NS(=O)(=O)c1c(C(F)(F)F)ccc(-c2cccc3ncccc23)c1-c1nn[nH]n1 [Example 486] .
**A:** 8.92
